experiment: Mean graph midpoint for growth inhibition of all human cancer cells was determined; format: functional, Cancer cell lines; design: unit: µM
VALUE_TYPE: MGM

Measured MGM of O=C(NCCc1ccccc1)c1cc(/C=C\c2cc(O)ccc2O)ccc1O : 1.4

Measured MGM of O=C(NCCc1ccccc1)c1cc(/C=C/c2cc(O)ccc2O)ccc1O : 3.8

Measured MGM of O=C(NCCc1ccc(F)cc1)c1cc(CCc2cc(O)ccc2O)ccc1O : 2.8

Measured MGM of CCCCCCNC(=O)c1cc(CCc2cc(O)ccc2O)ccc1O : 4.4

Measured MGM of COc1ccc(OC)c(CCc2ccc(O)c(C(=O)NCCc3ccc(F)cc3)c2)c1 : 6.9

Measured MGM of COC(=O)c1cc(/C=C\c2cc(OC)ccc2OC)ccc1OC : 15.5

Measured MGM of COc1ccc(OC)c(C#Cc2ccc(OC)c(C(=O)NCCc3ccccc3)c2)c1 : 40.7

Measured MGM of CCCCCCNC(=O)c1cc(C#Cc2cc(OC)ccc2OC)ccc1OC : 31.6

Measured MGM of O=C(NCCc1ccccc1)c1cc(CCc2cc(O)ccc2O)ccc1O : 6.4

Measured MGM of O=C(NCCc1ccc(F)cc1)c1cc(NCc2cc(O)ccc2O)ccc1O : 0.35

Measured MGM of COc1ccc(OC)c(CC(=O)c2ccc(O)c(C(=O)NCCc3ccc(F)cc3)c2)c1 : 3.6

====

Provide the reported GI50 of each item.
tested on: HOP-62; assay: Antiproliferative activity against human lung HOP-62 cell line; type: functional

Measured GI50 of COC(=O)c1cc(/C=C\c2cc(OC)ccc2OC)ccc1OC : 32.9 µM

Measured GI50 of CCCCCCNC(=O)c1cc(/C=C\c2cc(OC)ccc2OC)ccc1OC : 31.9 µM

Measured GI50 of O=C(NCCc1ccc(F)cc1)c1cc(/C=C\c2cc(O)ccc2O)ccc1O : 6.3 µM

Measured GI50 of COc1ccc(OC)c(/C=C\c2ccc(OC)c(C(=O)NCCc3ccc(F)cc3)c2)c1 : 8.1 µM

Measured GI50 of COc1ccc(OC)c(C#Cc2ccc(OC)c(C(=O)NCCc3ccc(F)cc3)c2)c1 : 4.9 µM

Measured GI50 of CCCCCCNC(=O)c1cc(C#Cc2cc(OC)ccc2OC)ccc1OC : 11.8 µM

Measured GI50 of COc1ccc(OC)c(CC(=O)c2ccc(O)c(C(=O)NCCc3ccc(F)cc3)c2)c1 : 1.5 µM

Measured GI50 of COc1ccc(OC)c(/C=C\c2ccc(OC)c(C(=O)NCCc3ccccc3)c2)c1 : > 100 µM

Measured GI50 of CCCCCCNC(=O)c1cc(CCc2cc(O)ccc2O)ccc1O : 7.4 µM

====

test system: CCRF-CEM; assay: Antiproliferative activity against human leukemia CCRF-CEM cell line; type: functional
Provide the reported GI50 of each item.
# output: bare number, implied unit nM

Measured GI50 of O=C(NCCc1ccc(F)cc1)c1cc(/C=C/c2cc(O)ccc2O)ccc1O : 1800

Measured GI50 of COc1ccc(OC)c(CCc2ccc(O)c(C(=O)NCCc3ccc(F)cc3)c2)c1 : 3200

Measured GI50 of O=C(NCCc1ccc(F)cc1)c1cc(NCc2cc(O)ccc2O)ccc1O : 290

Measured GI50 of COc1ccc(OC)c(C#Cc2ccc(OC)c(C(=O)O)c2)c1 : 55000

Measured GI50 of COc1ccc(OC)c(C#Cc2ccc(OC)c(C(=O)NCCc3ccc(F)cc3)c2)c1 : 4700

Measured GI50 of O=C(NCCc1ccc(F)cc1)c1cc(CCc2cc(O)ccc2O)ccc1O : 400

Measured GI50 of O=C(NCCc1ccccc1)c1cc(/C=C\c2cc(O)ccc2O)ccc1O : 200

Measured GI50 of CCCCCCNC(=O)c1cc(CCc2cc(O)ccc2O)ccc1O : 5100

Measured GI50 of COc1ccc(OC)c(CC(=O)c2ccc(O)c(C(=O)NCCc3ccc(F)cc3)c2)c1 : 2400

Measured GI50 of COc1ccc(OC)c(/C=C\c2ccc(OC)c(C(=O)NCCc3ccccc3)c2)c1 : 12300
